assay.details: Tolerability in Sprague-Dawley rats, plasma chemistry markers (Example 20)
Assay type: in vivo
applied.conditions: male Sprague-Dawley rats, 50 mg/kg s.c. weekly for 6 weeks (7 doses), 48 hours after last dose
Method: Sprague-Dawley rats are a multipurpose model used for safety and efficacy evaluations. The rats were treated with Ionis modified oligonucleotides from the studies described in the Examples above and evaluated for changes in the levels of various plasma chemistry markers.
Strand notation (5' to 3'): a small letter for the sugar, then the base; units joined by * are phosphorothioate-linked, units joined directly phosphodiester-linked; [ ] holds rarer units or linkages, { } end groups; capitals alone tell only the bases. k = constrained ethyl (cEt); [5mC] = 5-methylcytosine; d = 2'-deoxy (DNA)
Catalogue of ALT readings, one per entry.

substance: 1097224 (k[5mC]*kT*k[5mC]*dT*dT*dA*dT*dA*dT*dG*dG*dT*dT*kT*kT*kG; antisense) [compound 1097224]
ALT: 31 U/L

substance: 1076481 (k[5mC]*kT*kA*dA*dG*dT*dA*dA*dG*dG*dT*dT*dT*k[5mC]*k[5mC]*k[5mC]) [compound 1076481]
ALT: 50 U/L

substance: 1076453 (GTAATATTGCAATCTG; 3-10-3 cEt gapmer, further chemistry not given here) [compound 1076453]
ALT: 47 U/L

substance: 1074755 (k[5mC]*kA*k[5mC]*dT*dT*dT*dT*dA*d[5mC]*dA*dT*dT*dA*kG*kG*kA; antisense) [compound 1074755]
ALT: 57 U/L

substance: 1076187 (kG*kA*kT*dT*dT*dA*dG*dG*dA*dT*dG*d[5mC]*dA*kT*kG*kG; antisense) [compound 1076187]
ALT: 54 U/L

substance: 958499 (ATTAGAGTATGTGGCA; 3-10-3 cEt gapmer, further chemistry not given here) [compound 958499]
ALT: 61 U/L

----------
System: Yap1 mRNA
assay.details: Dose-dependent inhibition of human Yap1 in A-431 cells (Example 8, 10,000 cells per well, RTS4814)
Assay type: cell-based
applied.conditions: 2000.00 nM; A-431 cells
Method: Modified oligonucleotides described in the studies above were tested at various doses in A-431 cells. […] After approximately 48 hours, Yap1 mRNA levels were measured as previously described using the Human Yap1 primer-probe set RTS4814. Yap1 mRNA levels were normalized to total RNA content, as measured by RIBOGREEN®. […] IC50s were calculated using a linear regression on a log/linear plot of the data in excel.
Strand notation (5' to 3'): a small letter for the sugar, then the base; units joined by * are phosphorothioate-linked, units joined directly phosphodiester-linked; [ ] holds rarer units or linkages, { } end groups; capitals alone tell only the bases. k = constrained ethyl (cEt); [5mC] = 5-methylcytosine; d = 2'-deoxy (DNA)
Measured % UTC (Yap1 mRNA), listed per entry for reference.

substance: 1074454 (kT*kG*kT*dG*dA*d[5mC]*dT*dA*dA*dT*dG*dA*dT*kA*kG*k[5mC]; antisense) [compound 1074454]
% UTC (Yap1 mRNA), % UTC: 3
//
substance: 1076023 (kA*kT*kA*dA*dT*dT*dA*dG*dA*dT*dG*d[5mC]*dT*kG*kA*k[5mC]; antisense) [compound 1076023]
% UTC (Yap1 mRNA), % UTC: 3
//
substance: 1074676 (antisense k[5mC]*kA*kA*dA*dT*dT*dA*dT*dA*dG*dG*d[5mC]*dA*k[5mC]*kT*k[5mC]) [compound 1074676]
% UTC (Yap1 mRNA), % UTC: 5

----------
Tested on: Yap1 mRNA
assay.details: Dose-dependent inhibition of human Yap1 in A-431 cells (Example 6, 5,000 cells per well, RTS4814)
Type: cell-based
applied.conditions: Table 54; A-431 cells, free uptake, 1333 nM, approximately 48 hours, RTS4814
Strand notation (5' to 3'): a small letter for the sugar, then the base; units joined by * are phosphorothioate-linked, units joined directly phosphodiester-linked; [ ] holds rarer units or linkages, { } end groups; capitals alone tell only the bases. k = constrained ethyl (cEt); [5mC] = 5-methylcytosine; d = 2'-deoxy (DNA)
Classify by measured % UTC 1333 nM: Condition met if it is equal to or exceeds 70 % UTC, Condition not met if it is smaller.

substance: 716445 (antisense kG*kT*kA*dT*dG*dT*dG*dG*d[5mC]*dA*dA*dT*dA*kA*kT*kT) [compound 716445]
qualitative.label: Condition not met
--
substance: 716577 (antisense kT*k[5mC]*kT*dG*dT*d[5mC]*dA*dG*dT*dT*dA*dT*d[5mC]*k[5mC]*kT*kA) [compound 716577]
qualitative.label: Condition met
--
substance: 715582 (kG*kT*k[5mC]*dA*dA*dG*d[5mC]*d[5mC]*dT*dG*dT*d[5mC]*dT*kG*kG*kA; antisense) [compound 715582]
qualitative.label: Condition met
--
substance: 716469 (antisense kG*kT*kT*dT*dG*d[5mC]*dT*d[5mC]*d[5mC]*dT*dT*dT*d[5mC]*k[5mC]*kA*kA) [compound 716469]
qualitative.label: Condition met
--
substance: 715478 (kA*k[5mC]*k[5mC]*dA*dT*dT*dA*dT*dT*dA*d[5mC]*dT*d[5mC]*k[5mC]*kT*kG; antisense) [compound 715478]
qualitative.label: Condition not met

----------
System: Yap1 mRNA
assay.details: Antisense inhibition of human Yap1 in A-431 cells by cEt gapmers, single dose (Example 2, RTS4814)
Assay type: cell-based
applied.conditions: Table 19; A-431 cells, 5,000 cells per well, free uptake, 2,000 nM modified oligonucleotide, approx. 48 hours; RTS4814; normalized to RIBOGREEN; Yap1 mRNA as percent of untreated control
Strand notation (5' to 3'): a small letter for the sugar, then the base; units joined by * are phosphorothioate-linked, units joined directly phosphodiester-linked; [ ] holds rarer units or linkages, { } end groups; capitals alone tell only the bases. k = constrained ethyl (cEt); [5mC] = 5-methylcytosine; d = 2'-deoxy (DNA)
Please enter yes (1) where YAP1 (% UTC) is greater than or equal to 70 % UTC, and no (0) where it is lower.

substance: 1075973 (k[5mC]*k[5mC]*kG*d[5mC]*dA*dA*d[5mC]*dA*d[5mC]*d[5mC]*dA*dT*dT*k[5mC]*kT*kT; antisense) [Compound 1075973]
qualitative.label: no (0)
//
substance: 1075941 (kA*kG*kT*d[5mC]*dA*dA*dT*dA*dG*d[5mC]*dA*dA*dT*k[5mC]*kA*k[5mC]; antisense) [Compound 1075941]
qualitative.label: no (0)
//
substance: 1075717 (k[5mC]*kA*kT*dA*dA*dA*dT*dT*dT*d[5mC]*dA*dG*d[5mC]*k[5mC]*kG*kA; antisense) [Compound 1075717]
qualitative.label: no (0)
//
substance: 1074533 (antisense kT*kA*kG*dA*dA*d[5mC]*dA*d[5mC]*dT*dA*dA*dA*d[5mC]*kT*kA*k[5mC]) [Compound 1074533]
qualitative.label: yes (1)
//
substance: 1075141 (antisense kT*kA*kT*dA*d[5mC]*dG*dA*dG*dA*dA*dG*dT*dT*kG*kA*kA) [Compound 1075141]
qualitative.label: no (0)
//
substance: 1076485 (antisense kA*kA*kA*d[5mC]*dG*dA*dA*dA*d[5mC]*dG*dG*dG*dA*kA*kA*kT) [Compound 1076485]
qualitative.label: no (0)
//
substance: 1074373 (antisense kG*k[5mC]*kT*dT*dT*dG*dG*dT*dT*dG*dA*dT*dA*kG*kT*kA) [Compound 1074373]
qualitative.label: no (0)
//
substance: 1075813 (kA*k[5mC]*kT*dA*dA*dT*dA*dT*dG*d[5mC]*dA*dA*d[5mC]*kT*k[5mC]*kT; antisense) [Compound 1075813]
qualitative.label: no (0)
//
substance: 1074405 (antisense kG*k[5mC]*k[5mC]*dT*dG*dA*dA*dA*dA*d[5mC]*dT*dG*d[5mC]*kA*kA*k[5mC]) [Compound 1074405]
qualitative.label: no (0)
//
substance: 1074277 (antisense kG*kT*k[5mC]*dT*dA*dG*d[5mC]*d[5mC]*dA*dA*dG*dA*dG*kG*kT*kG) [Compound 1074277]
qualitative.label: no (0)
//
substance: 1075301 (k[5mC]*kA*kG*d[5mC]*dA*dA*d[5mC]*dA*d[5mC]*d[5mC]*dT*dA*dA*kG*kG*kA; antisense) [Compound 1075301]
qualitative.label: yes (1)
//
substance: 1074853 (antisense k[5mC]*kA*kA*dT*dT*dG*dT*dT*dA*dT*dG*dA*dT*kA*kG*kG) [Compound 1074853]
qualitative.label: no (0)
//
substance: 1074757 (kA*kG*kT*dT*dA*dA*dG*d[5mC]*dA*d[5mC]*dT*dT*dT*kT*kA*k[5mC]; antisense) [Compound 1074757]
qualitative.label: no (0)
//
substance: 1076165 (k[5mC]*k[5mC]*k[5mC]*d[5mC]*dA*dA*dG*dG*dA*d[5mC]*dT*dT*dG*k[5mC]*k[5mC]*kA; antisense) [Compound 1076165]
qualitative.label: yes (1)
//
substance: 1075557 (kT*kA*kT*dT*dA*dA*dG*dG*dT*dG*dG*d[5mC]*dT*kT*kA*k[5mC]; antisense) [Compound 1075557]
qualitative.label: no (0)
//
substance: 1076389 (kA*kT*k[5mC]*dG*dA*dA*dA*dT*dA*dT*dT*d[5mC]*dG*kA*kG*kA; antisense) [Compound 1076389]
qualitative.label: yes (1)
//
substance: 1074725 (antisense kG*kT*kA*dT*dA*dA*d[5mC]*dT*dG*dG*dG*d[5mC]*dA*kA*kA*kT) [Compound 1074725]
qualitative.label: no (0)
//
substance: 1075589 (kA*kA*kT*dT*dA*dG*d[5mC]*dA*dG*dG*dG*d[5mC]*dA*kG*kA*k[5mC]; antisense) [Compound 1075589]
qualitative.label: yes (1)
//
substance: 1075237 (antisense kG*k[5mC]*kT*dG*dA*dA*dA*dA*dT*dG*d[5mC]*dT*dA*kA*k[5mC]*kT) [Compound 1075237]
qualitative.label: yes (1)
//
substance: 1074309 (antisense k[5mC]*k[5mC]*kG*d[5mC]*dA*dT*dT*dG*d[5mC]*d[5mC]*dT*dG*dT*kG*kG*k[5mC]) [Compound 1074309]
qualitative.label: yes (1)
//
substance: 1074661 (antisense kG*kA*kA*dT*dT*dT*d[5mC]*dA*dT*dT*dA*d[5mC]*dT*kA*k[5mC]*kT) [Compound 1074661]
qualitative.label: no (0)
//
substance: 1076293 (kG*k[5mC]*kT*dT*dA*dT*dT*dA*dT*dT*dG*dA*dG*kT*kT*kA; antisense) [Compound 1076293]
qualitative.label: no (0)
//
substance: 1076261 (k[5mC]*k[5mC]*k[5mC]*d[5mC]*dA*dA*d[5mC]*dA*dA*dG*dT*dT*d[5mC]*k[5mC]*kT*kG; antisense) [Compound 1076261]
qualitative.label: no (0)
